Hello, the source for this data is ChEMBL document CHEMBL1143610, in case you need it.

- Measured target: Sarcoplasmic/endoplasmic reticulum calcium ATPase 1 (Homo sapiens, UniProt O14983)
- Protocol summary: Inhibitory potency against sarco- endoplasmic reticulum calcium-ATPase in relative to thapsigargin
- Sequence (O14983 whole entry, looked up): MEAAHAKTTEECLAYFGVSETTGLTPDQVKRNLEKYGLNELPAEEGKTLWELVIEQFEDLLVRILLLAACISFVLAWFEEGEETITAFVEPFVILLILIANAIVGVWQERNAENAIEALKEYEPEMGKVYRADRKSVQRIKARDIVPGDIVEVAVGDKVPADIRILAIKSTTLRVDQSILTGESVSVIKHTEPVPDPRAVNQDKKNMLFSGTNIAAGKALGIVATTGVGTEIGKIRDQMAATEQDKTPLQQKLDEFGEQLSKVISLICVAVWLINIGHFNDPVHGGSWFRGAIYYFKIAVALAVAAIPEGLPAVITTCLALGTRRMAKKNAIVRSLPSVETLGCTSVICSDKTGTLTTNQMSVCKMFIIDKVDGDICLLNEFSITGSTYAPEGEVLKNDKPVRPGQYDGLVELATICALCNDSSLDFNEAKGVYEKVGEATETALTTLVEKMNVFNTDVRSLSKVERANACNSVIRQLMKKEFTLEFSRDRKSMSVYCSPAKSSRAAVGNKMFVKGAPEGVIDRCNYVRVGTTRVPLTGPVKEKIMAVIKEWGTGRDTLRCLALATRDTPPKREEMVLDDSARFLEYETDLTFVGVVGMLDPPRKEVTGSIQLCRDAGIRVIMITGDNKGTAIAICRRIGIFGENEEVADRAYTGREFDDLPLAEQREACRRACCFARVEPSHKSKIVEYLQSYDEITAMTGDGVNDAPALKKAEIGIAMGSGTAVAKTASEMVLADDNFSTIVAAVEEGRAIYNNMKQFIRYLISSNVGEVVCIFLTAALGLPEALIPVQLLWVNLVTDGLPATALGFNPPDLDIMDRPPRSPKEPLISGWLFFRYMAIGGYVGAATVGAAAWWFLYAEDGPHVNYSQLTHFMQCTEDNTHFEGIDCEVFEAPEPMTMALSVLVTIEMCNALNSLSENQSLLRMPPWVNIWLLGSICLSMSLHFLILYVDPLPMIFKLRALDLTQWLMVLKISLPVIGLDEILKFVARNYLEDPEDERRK
Recorded endpoint: RIC50
I only need the number, thanks.

Provide measured RIC50 value, entry: C/C=C(/C)C(=O)O[C@H]1C(C)=C2[C@H]([C@@H]1OC(=O)CCCCCCC)[C@@](C)(OC(C)=O)C[C@H](OC(=O)CCCCCC(=O)Nc1ccc(C)c(N)c1)[C@@]1(O)[C@H]2O[C@H](O)[C@@]1(C)O
0.22

Provide measured RIC50 value, entry: C/C=C(/C)C(=O)O[C@H]1C(C)=C2[C@H]([C@@H]1OC(=O)CCCCCCC)[C@@](C)(OC(C)=O)C[C@H](OC(=O)CCC(=O)Nc1ccc(C)c(N)c1)[C@@]1(O)[C@H]2O[C@H](O)[C@@]1(C)O
0.003

Provide measured RIC50 value, entry: CCCCCCCCO[C@@H]1C(C)=C2[C@H]([C@@H]1OC(=O)CCCCCCC)[C@@](C)(OC(C)=O)C[C@H](OC(=O)CCC)[C@@]1(O)[C@H]2OC(=O)[C@@]1(C)O
0.002

Provide measured RIC50 value, entry: C/C=C(\C)C(=O)O[C@H]1C(C)=C2[C@H]([C@@H]1OC(=O)CCCCCCC)[C@@](C)(OC(C)=O)C[C@H](OC(=O)CCC)[C@@]1(OC(C)=O)[C@H]2OC(=O)[C@@]1(C)OC(C)=O
0.07

New cases:
Provide measured RIC50 value, entry: CCCCCCCC(=O)O[C@H]1[C@H]2C(=C(C)[C@@H]1OC(=O)CCCCCCC)[C@@H]1OC(=O)[C@@](C)(O)[C@@]1(O)[C@@H](OC(=O)CCC)C[C@]2(C)OC(C)=O
0.09

----------
- Measured target: Sarcoplasmic/endoplasmic reticulum calcium ATPase 1 (Homo sapiens)
- Protocol summary: Inhibitory potency against sarco- endoplasmic reticulum calcium-ATPase in relative to thapsigargin by using SGB-LIE method
Recorded endpoint: RIC50
I only need the number, thanks.

Provide measured RIC50 value, entry: CCCCCCCC(=O)O[C@@H]1C(=O)C(C)=C2[C@H]1[C@@](C)(OC(C)=O)C[C@H](OC(=O)CCCCCCCCCCCNC(=O)CCC(N)C(=O)O)[C@@]1(O)[C@H]2OC(=O)[C@@]1(C)O (some centres undefined)
5

Provide measured RIC50 value, entry: CCCCCCCC(=O)O[C@@H]1C(=O)C(C)=C2[C@H]1[C@@](C)(OC(C)=O)C[C@H](OC(=O)CCCC(=O)O)[C@@]1(O)[C@H]2OC(=O)[C@@]1(C)O
0.31

Provide measured RIC50 value, entry: CCCCCCCC(=O)O[C@@H]1C(=O)C(C)=C2[C@H]1[C@@](C)(OC(C)=O)C[C@H](OC(=O)CCC(=O)Nc1ccc(C)c(N)c1)[C@@]1(O)[C@H]2OC(=O)[C@@]1(C)O
0.0006

New cases:
Provide measured RIC50 value, entry: CCCCCCCC(=O)O[C@@H]1C(=O)C(C)=C2[C@H]1[C@@](C)(OC(C)=O)C[C@H](OC(=O)CCCCCCCCCCC(=O)O)[C@@]1(O)[C@H]2OC(=O)[C@@]1(C)O
2.08

----------
- Measured target: Sarcoplasmic/endoplasmic reticulum calcium ATPase 1 (Homo sapiens, UniProt O14983)
- Protocol summary: Inhibitory potency against sarco- endoplasmic reticulum calcium-ATPase in relative to thapsigargin
The entries below come with measured RIC50 values attached.
I only need the number, thanks.

Check out these entries, answers already filled in.
Determine reported RIC50 for C/C=C(/C)C(=O)O[C@H]1C(C)=C2[C@H]([C@@H]1OC(=O)CCCCCCC)[C@@](C)(OC(C)=O)C[C@H](O)[C@@]1(O)[C@H]2O[C@H](O)[C@@]1(C)O ; test system: Sarcoplasmic/endoplasmic reticulum calcium ATPase 1 (Homo sapiens, UniProt O14983).
0.19

Determine reported RIC50 for C/C=C(/C)C(=O)O[C@H]1C(C)=C2[C@H]([C@@H]1OC(=O)CCCCCCC)[C@@](C)(OC(C)=O)C[C@H](OC(=O)/C=C/c1ccc(N)cc1)[C@@]1(O)[C@H]2O[C@H](O)[C@@]1(C)O ; test system: Sarcoplasmic/endoplasmic reticulum calcium ATPase 1 (Homo sapiens, UniProt O14983).
0.59

// below: RIC50 requested for another compound
Determine reported RIC50 for C/C=C(/C)C(=O)O[C@H]1C(C)=C2[C@H]([C@@H]1OC(=O)CCCCCCC)[C@@](C)(OC(C)=O)C[C@H](OC(=O)CCc1ccc(NC(=O)OC(C)(C)C)cc1)[C@@]1(O)[C@H]2O[C@H](O)[C@@]1(C)O ; test system: Sarcoplasmic/endoplasmic reticulum calcium ATPase 1 (Homo sapiens, UniProt O14983).
0.52

----------
The entries below come with measured RIC50 values attached.
- Measured target: Sarcoplasmic/endoplasmic reticulum calcium ATPase 1 (Homo sapiens, UniProt O14983)
- Protocol summary: Inhibitory potency against sarco- endoplasmic reticulum calcium-ATPase in relative to thapsigargin (Experimental)
I only need the number, thanks.

Provide measured RIC50 value, entry: CCCCCCCC(=O)O[C@@H]1C(=O)C(C)=C2[C@H]1[C@@](C)(OC(C)=O)C[C@H](OC(=O)CCC(=O)Nc1ccc(C)c(N)c1)[C@@]1(O)[C@H]2OC(=O)[C@@]1(C)O
0.004

Provide measured RIC50 value, entry: CCCCCCCC(=O)O[C@@H]1C(=O)C(C)=C2[C@H]1[C@@](C)(OC(C)=O)C[C@H](OC(=O)CCCC(=O)O)[C@@]1(O)[C@H]2OC(=O)[C@@]1(C)O
0.02

Provide measured RIC50 value, entry: CCCCCCCC(=O)O[C@@H]1C(=O)C(C)=C2[C@H]1[C@@](C)(OC(C)=O)C[C@H](OC(=O)CCCCCCCCCCCNC(=O)CCC(N)C(=O)O)[C@@]1(O)[C@H]2OC(=O)[C@@]1(C)O (some centres undefined)
0.83

// below: RIC50 requested for another compound
Provide measured RIC50 value, entry: CCCCCCCC(=O)O[C@@H]1C(=O)C(C)=C2[C@H]1[C@@](C)(OC(C)=O)C[C@H](OC(=O)CCCCCCCCCCC(=O)O)[C@@]1(O)[C@H]2OC(=O)[C@@]1(C)O
0.25

----------
The entries below come with measured IC50 values attached.
- Measured target: Sarcoplasmic/endoplasmic reticulum calcium ATPase 1 (Homo sapiens)
- Protocol summary: Inhibitory activity against sarco- endoplasmic reticulum calcium-ATPase
- Sequence (O14983 whole entry): as the sequence (O14983 whole entry, looked up) above
# number only, unit nM dropped from output

Check out these entries, answers already filled in.
Determine reported IC50 for CCCCCCCC(=O)O[C@@H]1C(=O)C(C)=C2[C@H]1[C@@](C)(OC(C)=O)C[C@H](OC(=O)CCCCCCCCCCC(=O)O)[C@@]1(O)[C@H]2OC(=O)[C@@]1(C)O ; test system: Sarcoplasmic/endoplasmic reticulum calcium ATPase 1 (Homo sapiens).
2.08

Determine reported IC50 for CCCCCCCC(=O)O[C@@H]1C(=O)C(C)=C2[C@H]1[C@@](C)(OC(C)=O)C[C@H](OC(=O)CCCCCCCCCCCNC(=O)CCC(N)C(=O)O)[C@@]1(O)[C@H]2OC(=O)[C@@]1(C)O (some centres undefined) ; test system: Sarcoplasmic/endoplasmic reticulum calcium ATPase 1 (Homo sapiens).
1.2

New cases:
Determine reported IC50 for CCCCCCCC(=O)O[C@@H]1C(=O)C(C)=C2[C@H]1[C@@](C)(OC(C)=O)C[C@H](OC(=O)CCC(=O)Nc1ccc(C)c(N)c1)[C@@]1(O)[C@H]2OC(=O)[C@@]1(C)O ; test system: Sarcoplasmic/endoplasmic reticulum calcium ATPase 1 (Homo sapiens).
9040

Determine reported IC50 for CCCCCCCC(=O)O[C@@H]1C(=O)C(C)=C2[C@H]1[C@@](C)(OC(C)=O)C[C@H](OC(=O)CCCC(=O)O)[C@@]1(O)[C@H]2OC(=O)[C@@]1(C)O ; test system: Sarcoplasmic/endoplasmic reticulum calcium ATPase 1 (Homo sapiens).
19.8

----------
- Measured target: Sarcoplasmic/endoplasmic reticulum calcium ATPase 1 (Homo sapiens)
- Protocol summary: Inhibitory potency against sarco- endoplasmic reticulum calcium-ATPase in relative to thapsigargin
Our labelling divides records by RIC50 into ranges: bottom bin (below 0.06), middle bin (0.06 to below 0.4), top bin (0.4 or more)

Textbook exercise: identify the category of the molecule given here, C/C=C(/C)C(=O)O[C@H]1C(C)=C2[C@H]([C@@H]1OC(=O)CCCCCCC)[C@@](C)(OC(C)=O)C[C@H](OC(=O)CCCCCCCCCCCNC(=O)[C@@H](N)CC(C)C)[C@@]1(O)[C@H]2O[C@H](O)[C@@]1(C)O , according to its measured value.
middle bin

Textbook exercise: identify the category of the molecule given here, C/C=C(/C)C(=O)O[C@H]1C(C)=C2[C@H]([C@@H]1OC(=O)CCCCCCC)[C@@](C)(OC(C)=O)C[C@H](OC(=O)CCCCCCCCCCCN)[C@@]1(O)[C@H]2O[C@H](O)[C@@]1(C)O , according to its measured value.
middle bin

Textbook exercise: identify the category of the molecule given here, C/C=C(/C)C(=O)O[C@H]1C(C)=C2[C@H]([C@@H]1OC(=O)CCCCCCC)[C@@](C)(OC(C)=O)C[C@H](OC(=O)CCc1ccc(N)cc1)[C@@]1(O)[C@H]2O[C@H](O)[C@@]1(C)O , according to its measured value.
top bin

Textbook exercise: identify the category of the molecule given here, C/C=C(/C)C(=O)O[C@H]1C(C)=C2[C@H]([C@@H]1OC(=O)CCCCCCC)[C@@](C)(OC(C)=O)C[C@@H](OC(=O)CCC)[C@@]1(O)[C@H]2OC(=O)[C@@]1(C)O , according to its measured value.
bottom bin
